viability at 25 µM values, listed per item
# System: human non-small cell lung cancer cells (H460)
# Test summary: XTT cell proliferation assay, H460 cells, 48 h
# Type: cell-based
# Cond: NCI-H460 cells, 25 μM compound, 48 h, XTT, read-out: % Survival
Answer format: numeric, % implied, no suffix.

>>> number("Brc1ccc(-c2nc(-c3c[nH]c4ccc(Br)cc34)[nH]c2-c2ccc(Br)cc2)cc1 [Compound 14]")
83.5
>>> number("Cc1ccc(-c2nc(-c3c(C)[nH]c4ccccc34)[nH]c2-c2ccc(C)cc2)cc1 [Compound 23]")
96.3
>>> number("Cc1[nH]c2ccccc2c1-c1nc(-c2ccc(N(C)C)cc2)c(-c2ccc(N(C)C)cc2)[nH]1 [Compound 11]")
98.8
>>> number("Cc1[nH]c2ccccc2c1-c1nc(-c2ccccc2)c(-c2ccc(Cl)cc2)[nH]1 [Compound 31]")
94
>>> number("Cc1[nH]c2ccccc2c1-c1nc(-c2ccncc2)c(-c2ccc(F)cc2)[nH]1 [Compound 27]")
93.5

Fill in: human non-small cell lung cancer cells (H460) viability at 25 µM for Cc1[nH]c2ccccc2c1-c1nc(-c2ccc(Br)cc2)c(-c2ccc(Br)cc2)[nH]1 [Compound 13] = 102

Fill in: human non-small cell lung cancer cells (H460) viability at 25 µM for Brc1ccc(-c2[nH]c(-c3c[nH]c4ccc(Br)cc34)nc2-c2ccccc2)cc1 [Compound 43] = 18.8

Fill in: human non-small cell lung cancer cells (H460) viability at 25 µM for CCc1c2c(nc3ccc(OC(=O)N4CCC(N5CCCCC5)CC4)cc13)-c1cc3c(c(=O)n1C2)COC(=O)[C@]3(O)CC [CPT-11, irinotecan, reference compound] = 32.2

* * *

# System: human non-small cell lung cancer cells (H460)
# Test summary: XTT cell proliferation assay, H460 cells, 48 h
# Type: cell-based
# Cond: NCI-H460 cells, 25 μM compound, 48 h, XTT, read-out: % Survival
Measure name: viability at 25 µM
Please report the result as a number followed by the unit.

Take a look at these entries with their results.
>>> result("Brc1ccc2[nH]cc(-c3nc(-c4ccccc4)c(-c4ccccc4)[nH]3)c2c1")
"10.4%"
>>> result("O=[N+]([O-])c1ccc(-c2[nH]c(-c3c[nH]c4ccc(Br)cc34)nc2-c2ccccc2)cc1")
"17.4%"

Note: attention shifts to another entry.
viability at 25 µM reading for `COC(=O)c1ccc2c(-c3nc(-c4ccccc4)c(-c4ccccc4)[nH]3)c[nH]c2c1` : 101%

* * *

# Test system: human colon carcinoma cells (HT-29)
# Test summary: XTT cell proliferation assay, HT-29 cells, 48 h
# Type: cell-based
# Cond: 25 μM compound, read-out: % Survival
Measure name: viability at 25 µM (%)
Answer format: numeric, % implied, no suffix.

>>> number("Brc1ccc(-c2nc(-c3c[nH]c4ccc(Br)cc34)[nH]c2-c2ccc(Br)cc2)cc1 [Compound 14]")
55.2
>>> number("Cc1[nH]c2ccccc2c1-c1nc(-c2ccc(Oc3ccccc3)cc2)c(-c2ccc(Oc3ccccc3)cc2)[nH]1 [Compound 38]")
67
>>> number("COc1ccc(-c2nc(-c3c[nH]c4ccc(Br)cc34)[nH]c2-c2ccc(OC)cc2)cc1 [Compound 10]")
25.8
>>> number("CCc1c2c(nc3ccc(OC(=O)N4CCC(N5CCCCC5)CC4)cc13)-c1cc3c(c(=O)n1C2)COC(=O)[C@]3(O)CC [CPT-11, irinotecan, reference compound]")
82.3
>>> number("CC(=O)n1c(-c2c(C)n(C(C)=O)c3ccccc23)nc(-c2ccccc2)c1-c1ccccc1 [Compound 5]")
111

Note: attention shifts to another entry.
viability at 25 µM reading for Cc1ccc(-c2nc(-c3c(C)[nH]c4ccccc34)[nH]c2-c2ccc(C)cc2)cc1 [Compound 23] : 98.2

* * *

# Test system: human non-small cell lung cancer cells (H460)
# Test summary: XTT cell proliferation assay, H460 cells, 48 h
# Type: cell-based
# Cond: NCI-H460 cells, 25 μM compound, 48 h, XTT, read-out: % Survival
hey, just use fulfilled if measured viability at 25 µM is less than 30%, otherwise not fulfilled

>>> classification("COc1ccc(-c2nc(-c3ccccc3)c(-c3ccccc3)[nH]2)c(OC)c1 [Compound 73]")
"not fulfilled"
>>> classification("Clc1ccc(-c2[nH]c(-c3c[nH]c4ccc(Br)cc34)nc2-c2ccccc2)cc1 [Compound 32]")
"fulfilled"
>>> classification("COc1ccc(-c2nc(-c3c[nH]c4ccc(Br)cc34)[nH]c2-c2ccc(OC)cc2)cc1 [Compound 10]")
"fulfilled"
>>> classification("Cc1[nH]c2ccccc2c1-c1nc(-c2ccc(Cl)cc2)c(-c2ccc(Cl)cc2)[nH]1 [Compound 19]")
"not fulfilled"
>>> classification("Cc1[nH]c2ccccc2c1-c1nc(-c2ccccc2)c(-c2ccc(Br)cc2)[nH]1 [Compound 42]")
"not fulfilled"
>>> classification("Cc1[nH]c2ccc(Br)cc2c1-c1nc(-c2ccc(Oc3ccccc3)cc2)c(-c2ccc(Oc3ccccc3)cc2)[nH]1 [Compound 39]")
"not fulfilled"
>>> classification("Clc1ccc(-c2nc(-c3c[nH]c4ccc(Br)cc34)[nH]c2-c2ccc(Cl)cc2)cc1 [Compound 20]")
"not fulfilled"

Please find the next compound below.
Just wondering, is viability at 25 µM of Fc1ccc(-c2[nH]c(-c3c[nH]c4ccc(Br)cc34)nc2-c2ccccc2)cc1 [Compound 36] below 30%?
fulfilled

* * *

melting point values, listed per item

melting point reading for COc1ccc(-c2nc(-c3c[nH]c4ccc(Br)cc34)[nH]c2-c2ccccc2)cc1OC [Compound 96] : 265 to 266 °C

* * *

melting point values, listed per item

Take a look at these entries with their results.
>>> result("Nc1ccc2c3ccccc3c3nc(-c4c[nH]c5ccc(Br)cc45)[nH]c3c2c1")
"300 to 303 °C"
>>> result("Brc1ccc2[nH]cc(C=Nc3ccc4c5ccccc5c5nc(-c6c[nH]c7ccc(Br)cc67)[nH]c5c4c3)c2c1")
"236 to 237 °C"
>>> result("Cc1[nH]c2ccccc2c1-c1nc2c3ccccc3c3ccc([N+](=O)[O-])cc3c2[nH]1")
"335 to 336 °C"
>>> result("Cc1[nH]c2ccccc2c1-c1nc(-c2cccc3ccccc23)c(-c2ccccc2)[nH]1")
"239 to 240 °C"

Note: attention shifts to another entry.
melting point reading for `Brc1ccc2[nH]cc(-c3nc(-c4ccc(-c5ccccc5)cc4)c(-c4ccc(-c5ccccc5)cc4)[nH]3)c2c1` : 155 to 158 °C

* * *

# System: human non-small cell lung cancer cells (H460)
# Test summary: XTT cell proliferation assay, H460 cells, 48 h
# Assay type: cell-based
# Cond: NCI-H460, 48 h, read-out: % Survival
Measure name: viability at 25 µM (%)
Answer format: numeric, % implied, no suffix.

viability at 25 µM reading for `Brc1ccc2[nH]cc(-c3nc4c5ccccc5c5ccccc5c4[nH]3)c2c1` : 96

viability at 25 µM reading for `Cc1[nH]c2ccccc2c1-c1nc2c3ccccc3c3ccccc3c2[nH]1` : 77.3

viability at 25 µM reading for `Cc1[nH]c2ccccc2c1-c1nc(-c2cccc([N+](=O)[O-])c2)c(-c2cccc([N+](=O)[O-])c2)[nH]1` : 73.8

viability at 25 µM reading for `c1ccc2c(-c3nc4c5ccccc5c5ccccc5c4[nH]3)c[nH]c2c1` : 11.5

* * *

# System: human non-small cell lung cancer cells (H460)
# Test summary: XTT cell proliferation assay, H460 cells, 48 h
# Assay type: cell-based
# Cond: NCI-H460, 48 h, read-out: % Survival
viability at 100 µM values, listed per item
Answer format: numeric, % implied, no suffix.

Take a look at these entries with their results.
>>> number("Brc1ccc2[nH]cc(-c3nc4c5ccccc5c5ccccc5c4[nH]3)c2c1 [Compound 45]")
32.7
>>> number("c1ccc2c(-c3nc4c5ccccc5c5ccccc5c4[nH]3)c[nH]c2c1 [Compound 46]")
1.9
>>> number("Cc1[nH]c2ccccc2c1-c1nc(-c2cccc([N+](=O)[O-])c2)c(-c2cccc([N+](=O)[O-])c2)[nH]1 [Compound 29]")
20.2

Note: attention shifts to another entry.
viability at 100 µM reading for Cc1[nH]c2ccccc2c1-c1nc2c3ccccc3c3ccccc3c2[nH]1 [Compound 44] : 3.4

* * *

# Tested on: human non-small cell lung cancer cells (H460)
# Test summary: XTT cell proliferation assay, H460 cells, 48 h
# Format: cell-based
# Cond: NCI-H460 cells, 25 μM compound, 48 h, XTT, read-out: % Survival
viability at 25 µM values, listed per item
Please report the result as a number followed by the unit.

Take a look at these entries with their results.
>>> result("Cc1[nH]c2ccccc2c1-c1nc(-c2ccc(Oc3ccccc3)cc2)c(-c2ccc(Oc3ccccc3)cc2)[nH]1 [Compound 38]")
"98.8%"
>>> result("Cc1[nH]c2ccccc2c1-c1nc(-c2cccs2)c(-c2cccs2)[nH]1 [Compound 25]")
"99.5%"
>>> result("COc1ccc(-c2nc(-c3c(C)[nH]c4ccccc34)[nH]c2-c2ccc(OC)cc2)cc1 [Compound 9]")
"98.2%"
>>> result("Cc1[nH]c2ccccc2c1-c1nc(-c2ccc(-c3ccccc3)cc2)c(-c2ccc(-c3ccccc3)cc2)[nH]1 [Compound 40]")
"97.6%"
>>> result("Cc1[nH]c2ccccc2c1-c1nc(-c2ccccc2)c(-c2ccc(F)cc2)[nH]1 [Compound 35]")
"83.8%"

viability at 25 µM reading for CC(=O)n1c(-c2c(C)n(C(C)=O)c3ccccc23)nc(-c2ccccc2)c1-c1ccccc1 [Compound 5] : 102%

viability at 25 µM reading for Cc1[nH]c2ccccc2c1-c1nc(-c2ccccc2)c(-c2ccc([N+](=O)[O-])cc2)[nH]1 [Compound 33] : 73.4%
